Please provide measured max response for the entries that follow.
assay: qHTS Assay for Lipid Storage Modulators (AID 1519); conditions: Drosophila S3 cells, BODIPY lipid droplet/cell ratio, laser cytometry; measured here: lipid channel max response; cells loaded with oleic acid
Records with an inconclusive call do not appear.
Give the number; % is assumed, so skip it.

Task: Query: max response; subject: O=P1(N(CCCl)CCCl)NCCCO1 (stereo not given)
Result: -28.7

Task: Query: max response; subject: NC(=O)c1cc([N+](=O)[O-])cc([N+](=O)[O-])c1
Result: 7.25

Task: Query: max response; subject: CCCCC/C=C\C/C=C\C/C=C\C/C=C\CCCC(=O)NCC(=O)O
Result: 63.6

Task: Query: max response; subject: COc1cc(-c2ccc(=O)[nH]n2)ccc1OC(F)F
Result: -17.5

Task: Query: max response; subject: CC(C)c1cccc(C(C)C)c1O
Result: -3.68
